Values were extracted from patent US20250041309A1.

Experiment: pH measurement of Aildenafil salts dissolved in water
Format: physicochemical
Details: 2 mg/ml in water
Structures can show the parent of a compound that is named as a salt.
Measured quantity: 2 mg/ml pH value
Write no unit; give the number alone.

Q: Specify 2 mg/ml pH value for CCCc1nn(C)c2c(=O)[nH]c(-c3cc(S(=O)(=O)N4C[C@@H](C)N[C@@H](C)C4)ccc3OCC)nc12 [Aildenafil phosphate] and stop.
Ans: 5.47

Q: Consider the molecule CCCc1nn(C)c2c(=O)[nH]c(-c3cc(S(=O)(=O)N4C[C@@H](C)N[C@@H](C)C4)ccc3OCC)nc12 [Aildenafil DL-tartrate] . State its measured 2 mg/ml pH value.
Ans: 3.90

Q: Dear colleague, please send me the reported 2 mg/ml pH value for CCCc1nn(C)c2c(=O)[nH]c(-c3cc(S(=O)(=O)N4C[C@@H](C)N[C@@H](C)C4)ccc3OCC)nc12.O=C(O)C(O)C(O)C(=O)O [Aildenafil L-tartrate] when you can.
Ans: 3.59

Q: Give the reported 2 mg/ml pH value for this molecule. CCCc1nn(C)c2c(=O)[nH]c(-c3cc(S(=O)(=O)N4C[C@@H](C)N[C@@H](C)C4)ccc3OCC)nc12 [Aildenafil citrate]
Ans: 4.11
